Experiment: IV dog PK
Format: in vivo
Details: male, beagle, plasma, iv, 0.5 mg/kg, 0.5 mg/kg IV, plasma, read-out: C0 exposure, total
READOUT KIND: C0 (nM)
# output: bare number, implied unit nM

Entry under review: Cc1ccc2c(c1)C(=O)N(c1ccc(NC(=O)c3occc3C)c(F)c1)C2=O [Compound 4, reference compound] . Reported C0?
1100

---

Molecular target: 2D6 (Homo sapiens, UniProt P10635)
Construct: 0.1 mg/mL human liver microsomes (HLM) and Substrate Mix; from tissue; host or cells: human liver microsomes
Sequence (P10635 whole entry): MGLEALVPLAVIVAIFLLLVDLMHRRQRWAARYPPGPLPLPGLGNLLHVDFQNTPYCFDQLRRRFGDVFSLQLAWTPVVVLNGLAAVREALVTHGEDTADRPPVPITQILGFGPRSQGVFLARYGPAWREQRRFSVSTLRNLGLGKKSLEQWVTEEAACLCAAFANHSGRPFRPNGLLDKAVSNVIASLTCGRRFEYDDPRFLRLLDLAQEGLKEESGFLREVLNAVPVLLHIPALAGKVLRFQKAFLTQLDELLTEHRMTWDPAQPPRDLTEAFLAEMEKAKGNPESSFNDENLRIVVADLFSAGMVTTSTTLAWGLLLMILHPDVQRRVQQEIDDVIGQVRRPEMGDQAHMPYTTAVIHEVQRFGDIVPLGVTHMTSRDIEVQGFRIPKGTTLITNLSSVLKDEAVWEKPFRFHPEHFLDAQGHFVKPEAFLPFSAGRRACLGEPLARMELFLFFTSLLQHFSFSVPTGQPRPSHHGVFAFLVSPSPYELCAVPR
Assay: inhibition of cytochrome P450 enzymes
Type: in vitro ADME
Conditions: human liver microsomes; read-out: CYP450 2D6 inhibition
READOUT KIND: pIC50
Note: pIC50 values are expressed as the negative base-10 logarithm of concentration in M.

Entry under review: Cn1nc(-c2ccnn2C)cc1CNC(=O)c1cc(-c2ccco2)ccc1Cl [Compound 19d] . Reported pIC50?
4.55
